Molecular target: truncated form of human NaV 1.8 with full channel activity (Homo sapiens, UniProt Q9Y5Y9)
Sequence (Q9Y5Y9 126-1722 limits assumed): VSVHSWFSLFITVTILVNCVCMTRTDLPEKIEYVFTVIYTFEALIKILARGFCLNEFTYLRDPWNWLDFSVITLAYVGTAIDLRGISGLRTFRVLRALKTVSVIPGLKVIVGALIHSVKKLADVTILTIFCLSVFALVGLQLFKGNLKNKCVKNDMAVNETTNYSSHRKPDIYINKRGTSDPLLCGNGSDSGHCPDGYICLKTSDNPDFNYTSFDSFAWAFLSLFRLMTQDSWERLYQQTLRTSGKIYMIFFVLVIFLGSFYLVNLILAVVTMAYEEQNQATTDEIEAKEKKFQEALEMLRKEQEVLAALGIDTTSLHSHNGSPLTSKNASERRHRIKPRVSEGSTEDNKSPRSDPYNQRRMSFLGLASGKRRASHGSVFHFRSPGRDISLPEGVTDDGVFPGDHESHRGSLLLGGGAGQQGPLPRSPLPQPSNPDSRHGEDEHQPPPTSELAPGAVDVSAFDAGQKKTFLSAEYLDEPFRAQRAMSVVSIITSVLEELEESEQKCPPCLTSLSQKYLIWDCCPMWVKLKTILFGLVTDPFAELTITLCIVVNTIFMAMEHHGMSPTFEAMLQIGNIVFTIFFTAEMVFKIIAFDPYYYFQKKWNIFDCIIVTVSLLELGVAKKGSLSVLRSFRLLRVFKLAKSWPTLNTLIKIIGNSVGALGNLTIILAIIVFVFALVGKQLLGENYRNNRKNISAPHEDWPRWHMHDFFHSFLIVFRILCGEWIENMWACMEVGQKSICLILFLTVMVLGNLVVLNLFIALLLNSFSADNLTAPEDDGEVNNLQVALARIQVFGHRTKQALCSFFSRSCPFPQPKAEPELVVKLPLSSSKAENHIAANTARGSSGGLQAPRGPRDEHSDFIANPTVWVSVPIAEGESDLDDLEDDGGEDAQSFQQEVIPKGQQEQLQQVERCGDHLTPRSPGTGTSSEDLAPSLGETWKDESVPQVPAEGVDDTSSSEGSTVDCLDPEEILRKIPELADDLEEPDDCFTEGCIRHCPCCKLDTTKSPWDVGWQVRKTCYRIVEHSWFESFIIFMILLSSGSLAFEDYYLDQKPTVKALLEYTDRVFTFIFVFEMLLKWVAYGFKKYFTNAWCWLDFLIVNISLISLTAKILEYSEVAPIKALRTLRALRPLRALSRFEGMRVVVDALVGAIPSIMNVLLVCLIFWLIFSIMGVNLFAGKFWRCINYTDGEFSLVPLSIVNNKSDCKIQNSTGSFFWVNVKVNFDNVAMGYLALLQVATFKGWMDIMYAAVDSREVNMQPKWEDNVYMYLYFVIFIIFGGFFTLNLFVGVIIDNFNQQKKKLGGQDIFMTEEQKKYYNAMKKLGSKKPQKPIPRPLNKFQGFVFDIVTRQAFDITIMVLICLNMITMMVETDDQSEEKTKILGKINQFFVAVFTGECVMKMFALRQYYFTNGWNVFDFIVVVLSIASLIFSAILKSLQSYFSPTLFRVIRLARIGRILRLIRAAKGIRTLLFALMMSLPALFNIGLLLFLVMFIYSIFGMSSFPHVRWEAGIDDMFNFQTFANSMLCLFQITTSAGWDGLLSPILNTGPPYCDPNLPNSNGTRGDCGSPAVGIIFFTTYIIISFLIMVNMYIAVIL
Assay: E-VIPR Assay Method A for detecting and measuring Nav inhibition (HEK cells, membrane potential FRET dyes, electrical stimulation)
Type: cell-based
Details: HEK cells expressing human NaV 1.8, HS (human serum) in compound loading buffer, 11 point dose response, top dose 3 μM, Table 20A, read-out: Nav 1.8 MedChem Optical Assay EVIPR Assay Method A HS IC50
Outcome Measure: IC50 (nM)

- Compound: "COc1cc(OC(F)(F)F)ccc1Oc1cc2c(cc1C(=O)Nc1ccnc(C(N)=O)c1)OC(F)(F)O2 [Compound 121]"
  IC50 [nM]: 180
- Compound: "NC(=O)c1cc(NC(=O)c2c(Oc3ccc(OC(F)(F)F)cc3)ccc(F)c2F)ccn1 [Compound 64]"
  IC50 [nM]: 185
- Compound: "NC(=O)c1cc(NC(=O)c2cc(OC(F)(F)F)ccc2Oc2ccc(OC(F)(F)F)cc2)ccn1 [Compound 156]"
  IC50 [nM]: 560
- Compound: "CCOc1c(C(F)(F)F)ncc(Oc2ccc(OC(F)(F)F)cc2OC)c1C(=O)Nc1cc(C(N)=O)ncc1C [Compound 210]"
  IC50 [nM]: 140
- Compound: "NC(=O)c1cc(NC(=O)c2c(Oc3ccc(OC(F)(F)F)c(O)c3)ccc(C(F)(F)F)c2F)ccc1F [Compound 141]"
  IC50 [nM]: 103

a: COc1cc(OC(F)(F)F)ccc1Oc1ccc(C(F)(F)F)c(F)c1C(=O)Nc1ccnc(C(N)=O)n1 [Compound 207]
b: [2H]C([2H])([2H])Oc1c(Oc2ccc(C(F)(F)F)c(F)c2C(=O)Nc2ccnc(C(=O)NC)c2)ccc(OC(F)(F)F)c1F [Compound 228]
So which one has the bigger IC50 here, a or b ? Your answer should be the label attached to the chosen record.
a

* * *

Biological target: truncated form of human NaV 1.8 with full channel activity (Homo sapiens, UniProt Q9Y5Y9)
Assay: E-VIPR Assay Method A for detecting and measuring Nav inhibition (HEK cells, membrane potential FRET dyes, electrical stimulation)
Assay type: cell-based
Conditions: HEK cells expressing human NaV 1.8, HS (human serum) in compound loading buffer, 11 point dose response, top dose 3 μM, Table 20A, read-out: Nav 1.8 MedChem Optical Assay EVIPR Assay Method A HS IC50
Outcome Measure: IC50 (nM)

- Molecule: "Cc1cnc(C(N)=O)cc1NC(=O)c1c(Oc2ccc(OC(F)(F)F)c(F)c2)ccc(C(F)(F)F)c1F [Compound 246]"
  Units Of Measure: "nM"
  Reading: 21

I: COc1cc(OC(F)(F)F)ccc1Oc1ccc(C(F)(F)F)c(F)c1C(=O)Nc1ccc(C(N)=O)cc1F [Compound 82]
II: COc1c(C(F)(F)F)ncc(Oc2ccc(OC(F)(F)F)cc2)c1C(=O)Nc1cc(C(N)=O)ncc1C [Compound 131]
III: COc1cc(OC(F)(F)F)ccc1Oc1cc(Cl)cc(F)c1C(=O)Nc1cc(C(N)=O)ncc1C [Compound 130]
IV: [2H]C([2H])([2H])Oc1cc(OC(F)(F)F)ccc1Oc1ccc(OC(F)(F)F)c(F)c1C(=O)Nc1ccc(C(N)=O)nc1 [Compound 167]
Please list these in order of increasing IC50. Thank you! List labels; respect the requested ordering.
III, IV, I, II
